Reference source for all entries: patent US20250011447A1

Documented EC50 across a set of binders
# System: T1, human BCMA on the cell membrane surface (H929 and RPMI8226 cells) (human, UniProt Q02223 1-184)
# T1 construct: whole, on cells; also called BCMA antigen on the cell membrane surface; BCMA-expressing cell line H929
# T1 sequence (looked up): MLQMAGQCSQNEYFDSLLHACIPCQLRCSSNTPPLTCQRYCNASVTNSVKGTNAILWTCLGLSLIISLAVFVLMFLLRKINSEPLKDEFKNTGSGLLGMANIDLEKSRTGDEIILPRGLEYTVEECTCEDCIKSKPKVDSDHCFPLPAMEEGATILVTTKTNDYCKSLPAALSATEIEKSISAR
# Assay Method Text: flow cytometry on RPMI8226 cells
Just the number in µg/mL, nothing appended.

For reference, reported EC50 for B10.4 scFv-Fc (Fc fusion, also called mutant B10.4; not shown: Fc (scFv-Fc)) scFv: QVQLQQSGAEVKKPGSSVKVSCKASGGTFSKSAIMWVRQAPGQGLEWMGGVIPIFGTANYAQKFQGRVTITADESTSTAYMELSSLRSEDTAVYYCARGWYLDLWGRGTLVTVSSASTGGSSRSSSSGGGGSGGGGLPVLTQPPSASGTPGQRVTISCSGSSNNIGGYSVNWYQQFPGTAPKLLIYRNNQRPSGVPDRFSGSKSGASFSLAISGLQFEDEADYYCARWDDSVIGWVLGTGTQLTVL stands at 0.0343

For reference, reported EC50 for B10.5 scFv-Fc (Fc fusion, also called mutant B10.5; not shown: Fc (scFv-Fc)) scFv: QVQLQQSGAEVKKPGSSVKVSCKASGGTFSKSAIHWVRQAPGQGLEWMGGVIPIFGTANYAQKFQGRVTITADESTSTAYMELSSLRSEDTAVYYCARGWYLDLWGRGTLVTVSSASTGGSSRSSSSGGGGSGGGGLPVLTQPPSASGTPGQRVTISCSGSSSNIGGYSVNWYQQFPGTAPKLLIYRNNQRPSGVPDRFSGSKSGASASLAISGLQSEDVADYYCAAWDDSLIGYVFGTGTQLTVL stands at 0.0406

For reference, reported EC50 for B10.3 scFv-Fc (Fc fusion, also called mutant B10.3; not shown: Fc (scFv-Fc)) scFv: QVQLQQSGAEVKKPGSSVKVSCKASGGTFSKSAIQWVRQAPGQGLEWMGGVIPIFGTANYAQKFQGRVTITADESTSTAYMELSSLRSEDTAVYYCARGWYLDLWGRGTLVTVSSASTGGSSRSSSSGGGGSGGGGLPVLTQPPSASGTPGQRVTISCSGSSNNIGGYSVNWYQQFPGTAPKLLIYRNNQRPSGVPDRFSGSKSGASASLAISGLQSEDEADYYCAAWDDSVIGWLFGTGTQLTVL stands at 0.0282
